# Measurement description: chemical genetic growth profiling, strain panel (AID 1159580);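 further: tested at 20 µM; growth read once vehicle control cultures reached saturation at 30 °C; 1 = growth at the plate median or of vehicle wells; lower values mean less growth of the strain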
# Test context: S. cerevisiae deletion strains, growth OD, locus YBR279W, strain paf1, active compounds read low
In all, about 5,500 compounds went through this assay and about 2,000 (36%) were called active. About 18% were inconclusive and are not listed. Some of the results follow.
Assay readout: normalized growth
The answer should be a number; do not append a unit.

According to the records, this compound CC(Oc1ccccc1)C(=O)N[C@@H]1C(=O)N2[C@@H]1SC(C)(C)[C@@H]2C(=O)O (stereo partly specified) displays normalized growth of 1.01

According to the records, this compound C[C@]12CCC(=O)C=C1CCC1C2CC[C@@]2(C)C1CC[C@@H]2O (stereo partly specified) displays normalized growth of 0.998

According to the records, this compound `CC(=O)O[C@H]1[C@@H]2[C@@H](OC(=O)Cc3ccccc3)[C@@H](C)C[C@]2(OC(C)=O)C(=O)/C(C)=C/[C@H]2[C@H](CC[C@@]13CO3)C2(C)C` displays normalized growth of 0.983

According to the records, this compound CCC(=O)O[C@H]1CCC2C3CCC4=CC(=O)CC[C@]4(C)C3CC[C@@]21C (stereo partly specified) displays normalized growth of 0.959

According to the records, this compound `COC1=C(OC)C(=O)C(C/C=C(\C)CC/C=C(\C)CC/C=C(\C)CC/C=C(/C)CC/C=C(\C)CC/C=C(\C)CC/C=C(\C)CC/C=C(\C)CC/C=C(\C)CCC=C(C)C)=C(C)C1=O` displays normalized growth of 0.989

According to the records, this compound `CCC(=O)O[C@H]1[C@H](O[C@@H]2[C@@H](C)[C@H](O[C@H]3C[C@@](C)(OC)[C@@H](O)[C@H](C)O3)[C@@H](C)C(=O)O[C@H](CC)[C@@](C)(O)[C@H](O)[C@@H](C)C(=O)[C@H](C)C[C@@]2(C)O)O[C@H](C)C[C@@H]1N(C)C` displays normalized growth of 0.911

According to the records, this compound `CC1=C(C/C=C(\C)CCC[C@H](C)CCC[C@H](C)CCCC(C)C)C(=O)c2ccccc2C1=O` displays normalized growth of 0.994

According to the records, this compound CC(CCc1ccccc1)NC(C)C(O)c1ccc(O)cc1 (stereo unspecified) displays normalized growth of 0.995

According to the records, this compound `CN1CCC(=C2c3ccccc3CCc3sccc32)CC1` displays normalized growth of 0.959

According to the records, this compound CC(=O)O[C@@H]1C[C@@]2(C)C(CC[C@@H]2C(C)=O)C2CCC3=CC(=O)CC[C@]3(C)C21 (stereo partly specified) displays normalized growth of 1

According to the records, this compound `CCN(CC)CCNC(=O)c1cc(Br)c(N)cc1OC` displays normalized growth of 0.991

According to the records, this compound `COc1ccc2c(C)cc(=O)oc2c1` displays normalized growth of 0.995

According to the records, this compound `CCOC(=O)[C@H](CCc1ccccc1)N[C@H]1CCc2ccccc2N(CC(=O)O)C1=O` displays normalized growth of 0.987

According to the records, this compound `CS(=O)(=O)c1ccc(C2=C(c3ccccc3)C(=O)OC2)cc1` displays normalized growth of 0.987

According to the records, this compound `O=C1C=CC(=C(c2ccc(O)cc2)c2ccc(O)cc2)C=C1` displays normalized growth of 0.99

According to the records, this compound `O=C(O)c1c2ccccc2cc2ccccc12` displays normalized growth of 0.959

According to the records, this compound `Cc1cc(O)c(C)c(O)c1C(=O)O` displays normalized growth of 0.984

According to the records, this compound `c1ccc(N=Nc2ccccc2)cc1` displays normalized growth of 0.985

According to the records, this compound `Cc1cc(O)c(C=O)c(O)c1C(=O)O` displays normalized growth of 0.997

According to the records, this compound CNC(C)[C@H](O)c1ccccc1 (stereo partly specified) displays normalized growth of 1

According to the records, this compound `O=C(O)c1cc2ccccc2[nH]1` displays normalized growth of 0.991

According to the records, this compound C=C1C2CC[C@H]3[C@]4(C)C[C@H](OC5OC(CO)C(OS(=O)(=O)O)C(OS(=O)(=O)O)C5OC(=O)CC(C)C)C[C@@H](C(=O)O)[C@H]4CC[C@]3(C2)[C@H]1O (stereo partly specified) displays normalized growth of 1.01

According to the records, this compound `COc1cc2c(cc1OC)Cc1cc(OC)c(OC)cc1Cc1cc(OC)c(OC)cc1C2` displays normalized growth of 1.02

According to the records, this compound NCC1CCC(C(=O)O)CC1 (stereo unspecified) displays normalized growth of 1.01

According to the records, this compound `O=C(O)c1cc2ccccc2c(Cc2c(O)c(C(=O)O)cc3ccccc23)c1O` displays normalized growth of 0.99

According to the records, this compound `CN[C@@H](C)[C@@H](O)c1ccccc1` displays normalized growth of 1

According to the records, this compound CC(NCCc1ccc(O)cc1)C(O)c1ccc(O)cc1 (stereo unspecified) displays normalized growth of 0.978

According to the records, this compound CC(N)CCCC(C)(C)O (stereo unspecified) displays normalized growth of 0.984

According to the records, this compound `CN1CCC(=C2c3ccccc3Sc3ccccc32)CC1` displays normalized growth of 1.02

According to the records, this compound CCCCCCCCNC(C)C(O)c1ccc(SC(C)C)cc1 (stereo unspecified) displays normalized growth of 0.0682

According to the records, this compound CC(C[N+](C)(C)C)OC(N)=O (stereo unspecified) displays normalized growth of 1.03
